Source listed as paper PMC7587356.

- Measurement target: SARS-CoV-2 3CLpro (Severe acute respiratory syndrome coronavirus 2)
- Test method notes: biochemical
- Type: biochemical
- Design: unit not given here
- Test conditions: LOPAC1280 primary screen with protease, 5 µM compound, mean of two replicates
Measured quantity: mean (LOPAC_screen_w_protease)

                                   molecule  measured_value
0  C[C@]12CC[C@@H](O)C[C@@H]1CC[C@@H]1[C@@H]2CC[C@]2(C)[C@@H](O)CC[C@@H]12 [5alpha-Androstane-3alpha,17beta-diol]           1.678
1  NCC(=O)NCCC(c1ccccc1)c1ccccc1 [N-(3,3-Diphenylpropyl)glycinamide]           1.396
2  O=C1Nc2ccccc2/C1=C1/Nc2ccccc2/C1=N\O [Indirubin-3'-oxime]           1.392
3  CCCCC/C=C\C[C@@H](O)/C=C/c1cccc(C[C@@H](O)CCCCO)n1 [U-75302]          1.3528
4  Cl.NNC(N)=O [Semicarbazide hydrochloride]           1.574
5  CCCOc1ccccc1-c1nc2nn[nH]c2c(=O)[nH]1 [Zaprinast]           1.567
6  N#C/C(=C\c1ccc(O)c(O)c1)C(=O)c1ccc(O)c(O)c1 [Tyrphostin AG 538]           1.741
7  O=c1[nH]c(=O)n([C@H]2C[C@H](O)[C@@H](CO)O2)cc1Br [5-Bromo-2'-deoxyuridine]           1.398
